Value source: patent US20120114665A1

system: T1, human RANKL (receptor activator of NF-κB ligand) (human, UniProt O14788 140-317, limits assumed)
T1 construct: also called hRANKL; hRANKL native trimer
T1 sequence: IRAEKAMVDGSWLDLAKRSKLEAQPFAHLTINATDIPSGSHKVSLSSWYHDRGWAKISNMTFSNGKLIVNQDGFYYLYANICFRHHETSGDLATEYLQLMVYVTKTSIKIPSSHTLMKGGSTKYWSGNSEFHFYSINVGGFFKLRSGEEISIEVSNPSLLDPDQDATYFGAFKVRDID
protocolDescription: SPR (BIACORE), purified antibody, 25°C

# binder, readoutUnits, Kd
data = [
    ("H4H007P (antibody, V domains shown, Purified antibody from clone 2E12) VH: QVQLVESGGGVVQPGRSLRLSCAASGFTFSGYGMHWVRQAPGMGLEWVAVISYDGINKYYADSVKGRFTISRDNSKNTLFLQMNSLRAEDTALYYCAKCLSGTYWGYGMDVWGQGTTVTVS VL: DIQMTQSPSTLSASVGDRVTITCRASQSISSWLAWYQLKPGKAPKLLIYKASSLESGVPSRFGGSGSGTEFTLTISSLQPDDFATYYCQHYNSYSWTFGQGTKVEIK", "pM", 335),
]
